Reference source: PubChem BioAssay AID1963843

# Test system: 616215-338-R-J1-PDC complex spheroid viability
# Assay details: Anticancer human tumor 616215-338-R-J1-PDC patient-derived colon adenocarcinoma cell line growth inhibition [POLQ]
# Test parameters: second compound 0.0316 µM; first compound 3.16 µM; active compounds read low
Readout kind: viability, T/C (%)

molecule="O=C(Nc1ccc(O)c(NS(=O)(=O)c2ccc(F)cc2)c1)c1ccc(-c2ccccc2)cc1 + COC1C(OC(N)=O)C(O)C(Oc2ccc3c(O)c(NC(=O)c4ccc(O)c(CC=C(C)C)c4)c(=O)oc3c2C)OC1(C)C" readout_unit=% reported_result=118
molecule="O=c1[nH]cc(F)c(=O)[nH]1 + COC1C(OC(N)=O)C(O)C(Oc2ccc3c(O)c(NC(=O)c4ccc(O)c(CC=C(C)C)c4)c(=O)oc3c2C)OC1(C)C" readout_unit=% reported_result=60.7
molecule="O=C(c1cc(Cc2n[nH]c(=O)c3ccccc23)ccc1F)N1CCN(C(=O)C2CC2)CC1 + COC1C(OC(N)=O)C(O)C(Oc2ccc3c(O)c(NC(=O)c4ccc(O)c(CC=C(C)C)c4)c(=O)oc3c2C)OC1(C)C" readout_unit=% reported_result=109
molecule="CNCc1ccc(-c2[nH]c3cc(F)cc4c3c2CCNC4=O)cc1 + COC1C(OC(N)=O)C(O)C(Oc2ccc3c(O)c(NC(=O)c4ccc(O)c(CC=C(C)C)c4)c(=O)oc3c2C)OC1(C)C" readout_unit=% reported_result=107
molecule="COc1ccc([C@@H](O)c2cc(-c3ncnc4cc(N5CCOCC5)ccc34)c(F)cc2Cl)nn1 + Nc1ccc(C#CCN(C(=O)Cc2ncc(C(F)(F)F)cc2C(F)(F)F)c2ccc(F)cc2)nn1" readout_unit=% reported_result=95.8

###

We begin with a simple list: items and their reported viability, T/C.
# Tested on: 616215-338-R-J1-PDC complex spheroid viability
# Assay details: Anticancer human tumor 616215-338-R-J1-PDC cell line growth inhibition [POLQ];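 note: spheroids exposed to compounds for one week before readout; percent viability relative to DMSO vehicle wells taken as 100%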
# Test parameters: second compound 0.0316 µM; first compound 1 µM; active compounds read low
Readout kind: viability, T/C (%)

molecule="Nc1ccn(C2OC(CO)C(O)C2(F)F)c(=O)n1 (stereo not drawn) + COC1C(OC(N)=O)C(O)C(Oc2ccc3c(O)c(NC(=O)c4ccc(O)c(CC=C(C)C)c4)c(=O)oc3c2C)OC1(C)C" readout_kind="viability, T/C" reported_result=35
molecule="CCc1c2c(nc3ccc(O)cc13)-c1cc3c(c(=O)n1C2)COC(=O)[C@]3(O)CC + Cc1cccc(N(C)C(=O)C2C(O)CCN2c2nc(C)cc(C(F)(F)F)c2C#N)c1" readout_kind="viability, T/C" reported_result=20.8
molecule="C=CCn1c(=O)c2cnc(Nc3ccc(N4CCN(C)CC4)cc3)nc2n1-c1cccc(C(C)(C)O)n1 + Nc1ccc(C#CCN(C(=O)Cc2ncc(C(F)(F)F)cc2C(F)(F)F)c2ccc(F)cc2)nn1" readout_kind="viability, T/C" reported_result=35.4

###

# System: 616215-338-R-J1-PDC complex spheroid viability
# Assay details: Anticancer human tumor 616215-338-R-J1-PDC cell line growth inhibition [POLQ];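 note: spheroids exposed to compounds for one week before readout; percent viability relative to DMSO vehicle wells taken as 100%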
# Test parameters: second compound 0.1 µM; first compound 0.316 µM; active compounds read low
# Experimental: Multicellular complex tumor spheroid response to Polymerase (POL) inhibitors (novobiocin, ART-558, RP6685) in combination with a variety of drugs and investigational agents in selected tumor cell lines The POL inhibitors (novobiocin, ART-558, and RP6685) were evaluated both individually and in combination with standard of care and investigational anticancer small molecules within a complex spheroid model of solid tumors. . […]
Readout kind: viability, T/C (%)

compound="C=CC(=O)N1CCN(c2nc(=O)n(-c3c(C)ccnc3C(C)C)c3nc(-c4c(O)cccc4F)c(F)cc23)C(C)C1 (configuration not stated) + COC1C(OC(N)=O)C(O)C(Oc2ccc3c(O)c(NC(=O)c4ccc(O)c(CC=C(C)C)c4)c(=O)oc3c2C)OC1(C)C" readout_kind="viability, T/C" readout_unit=% reported_result=98
compound="C=CCn1c(=O)c2cnc(Nc3ccc(N4CCN(C)CC4)cc3)nc2n1-c1cccc(C(C)(C)O)n1 + COC1C(OC(N)=O)C(O)C(Oc2ccc3c(O)c(NC(=O)c4ccc(O)c(CC=C(C)C)c4)c(=O)oc3c2C)OC1(C)C" readout_kind="viability, T/C" readout_unit=% reported_result=95.3
